B1: HDV Ribozyme (parent)
chain: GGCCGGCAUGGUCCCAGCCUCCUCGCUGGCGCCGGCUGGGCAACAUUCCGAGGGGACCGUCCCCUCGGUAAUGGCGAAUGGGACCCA

Variants of: B1
Assay: self-cleavage, relative activity (ratio to wild type); higher = more cleavage; co-transcriptional
Assign self-cleavage to each entry below.
Field format: numeric only.

May I ask what self-cleavage has been recorded for C26U G50A ?
1.07

Lookup G31A U72C
0.256

Lookup G38C C85G
0.237

Lookup U27G G68A
0.858

Lookup C49U G80A
0.4

Lookup G5A A42U
0.111

Lookup C61A C63U
1.07

Lookup A71C A83C
0.229

Lookup C36A G53U
0.19

Lookup A42G C62A
0.35

Lookup U27G A83U
0.791
